Cited source: patent US20250122304A1

- measurement target: T1, human FAP (Homo sapiens, UniProt Q12884)
- T1 sequence (Q12884 1-760): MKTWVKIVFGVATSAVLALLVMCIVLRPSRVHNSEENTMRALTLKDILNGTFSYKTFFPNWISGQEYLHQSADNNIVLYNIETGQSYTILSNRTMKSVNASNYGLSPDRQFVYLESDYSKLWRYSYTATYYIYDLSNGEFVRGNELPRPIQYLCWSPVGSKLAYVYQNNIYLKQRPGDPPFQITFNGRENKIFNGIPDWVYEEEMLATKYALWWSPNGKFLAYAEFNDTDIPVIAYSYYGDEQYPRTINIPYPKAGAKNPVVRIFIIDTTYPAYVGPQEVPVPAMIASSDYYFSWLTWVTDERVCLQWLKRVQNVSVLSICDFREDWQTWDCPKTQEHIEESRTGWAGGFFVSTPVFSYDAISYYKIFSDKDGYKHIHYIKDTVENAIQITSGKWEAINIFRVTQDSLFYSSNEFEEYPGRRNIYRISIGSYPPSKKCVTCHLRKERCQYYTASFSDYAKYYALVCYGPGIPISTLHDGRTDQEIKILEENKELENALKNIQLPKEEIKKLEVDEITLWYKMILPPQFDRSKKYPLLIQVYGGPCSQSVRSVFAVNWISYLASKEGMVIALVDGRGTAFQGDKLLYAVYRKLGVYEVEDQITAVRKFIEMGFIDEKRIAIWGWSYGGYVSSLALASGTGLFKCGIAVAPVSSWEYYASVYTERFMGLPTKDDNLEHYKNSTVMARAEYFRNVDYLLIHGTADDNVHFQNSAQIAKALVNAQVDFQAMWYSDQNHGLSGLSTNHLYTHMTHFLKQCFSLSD
- method notes: BLI click reaction with Tz-R3B23 on TCO-VHHs bound to target, span (Example 7, Table 18)
- conditions used: Experiment 2, 1st assay, click reaction with 50 nM Tz-R3B23 for 30 minutes, signal difference vs assay buffer
# Span per record follows
API doc: respond with a numeric literal and nothing else, no unit.

Please review the following examples before continuing.
# molecule, meas value
measured = [
    ("TCO-VHH6 (VHH, trans-cyclooctene (TCO) conjugated via TCO-NHS; site(s) and number not stated, also called TCO conjugated VHH6; VHH6 post conjugation) VHH: DVQLVESGGGLVQAGGSLRLSCAVSGSISSANSMGWYRQAPGKQRDVVAGLTTGGRSHYADSVKGRFTISRDNAKNTVYLQMNSLKAEDTAVYYCNLWPPVQGYWGQGTQVTVSS", 0.0287),
    ("TCO-VHH9: TCO conjugated VHH9 (FAP binding) (conjugate, cyclised or stapled) VHH: QVQLQESGGGLVQSGGSLRLSCVASGSISSINAMGWYRQAPGNKREWVAGITSGGSTNYADAVLGRFSIFRDNPKNTVYLQMNSLKPEDTAVYYCNTWPPSTFGSWGQGTQVTVSSAAAYPYDVPDYGSHHHHHH", 0.0091),
]

# context switch: different molecule, same Span
Challenge: Provide Span value for the following molecule: VHH8: VHH, target FAP, SEQ ID NO 91 (protein) VHH: QVQLQESGGGTVQPGGSLRLSCAASGISVSIASMAWYRQAPGKQRELVAGIISGGSTNYADSVKGRFTISRDNAKKVVLLQMNSLKPEDTAVYYCNTYPPFVGPGATATWGQGTQVTVSSAAAYPYDVPDYGSHHHHHH
Response given: 0.0028
